- ASSAYED SYSTEM: Sigma non-opioid intracellular receptor 1 (Rattus norvegicus, UniProt Q9R0C9)
- Sequence (Q9R0C9 whole entry): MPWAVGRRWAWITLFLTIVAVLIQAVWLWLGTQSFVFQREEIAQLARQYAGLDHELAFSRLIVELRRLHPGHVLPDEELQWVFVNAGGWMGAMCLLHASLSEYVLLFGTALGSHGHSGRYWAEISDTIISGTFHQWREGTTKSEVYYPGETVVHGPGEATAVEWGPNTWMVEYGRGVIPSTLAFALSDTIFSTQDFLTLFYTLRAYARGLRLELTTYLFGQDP
- ASSAY REMARKS: Binding affinity at sigma receptor by [3H](+)-SKF-10047 displacement.
pIC50: −log10 of the molar value.
Listing of entries alongside the reported pIC50.

>  <MOLECULE>
C(=C/C1CCCN(CCc2ccccc2)C1)/c1ccccc1 (stereo unspecified)

>  <pIC50>
9.10

$$$$
>  <MOLECULE>
O=C1c2ccccc2S(=O)(=O)N1CCCCN1CCCC(/C=C/c2ccccc2)C1 (stereo unspecified)

>  <pIC50>
7.64

$$$$
>  <MOLECULE>
C(=C\C1CCCN(CCCc2ccccc2)C1)/c1ccccc1 (stereo unspecified)

>  <pIC50>
8.40

$$$$
>  <MOLECULE>
C(=C/C1CCCN(CCCCc2ccccc2)C1)/c1ccccc1 (stereo unspecified)

>  <pIC50>
8.15

$$$$
>  <MOLECULE>
C(=C\C1CCCNC1)/c1ccccc1 (stereo unspecified)

>  <pIC50>
6.37

$$$$
>  <MOLECULE>
CC(C)=CCN1CCCC(/C=C/c2ccccc2)C1 (stereo unspecified)

>  <pIC50>
7.42

$$$$

* * *

- ASSAYED SYSTEM: D(2) dopamine receptor (Rattus norvegicus)
- Sequence (P61169 whole entry): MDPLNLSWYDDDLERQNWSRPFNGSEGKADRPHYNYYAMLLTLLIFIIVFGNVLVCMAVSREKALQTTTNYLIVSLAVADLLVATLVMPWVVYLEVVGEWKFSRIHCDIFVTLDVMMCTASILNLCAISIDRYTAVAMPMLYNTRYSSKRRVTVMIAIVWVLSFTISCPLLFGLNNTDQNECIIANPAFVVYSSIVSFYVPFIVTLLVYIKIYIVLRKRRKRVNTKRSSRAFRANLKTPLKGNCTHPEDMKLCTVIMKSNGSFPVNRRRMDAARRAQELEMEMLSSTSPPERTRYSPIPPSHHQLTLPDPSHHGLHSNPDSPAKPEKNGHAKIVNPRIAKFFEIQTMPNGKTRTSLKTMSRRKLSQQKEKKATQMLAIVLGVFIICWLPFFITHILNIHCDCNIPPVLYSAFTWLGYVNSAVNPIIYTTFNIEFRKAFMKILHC
- ASSAY REMARKS: Binding affinity at dopamine D2 receptor in rat striatum by [3H]spiperone displacement.
MEASURED METRIC: IC50 (nM)

>  <COMPOUND>
CC(C)=CCN1CCCC(/C=C/c2ccccc2)C1 (stereo not drawn)

>  <MEASURED METRIC>
IC50

>  <READOUT UNITS>
nM

>  <RELATION>
=

>  <DATA VALUE>
180

$$$$
>  <COMPOUND>
C(=C/C1CCCN(C2CCCCC2)C1)/c1ccccc1 (stereo not drawn)

>  <MEASURED METRIC>
IC50

>  <READOUT UNITS>
nM

>  <RELATION>
=

>  <DATA VALUE>
1120

$$$$
>  <COMPOUND>
C(=C\C1CCCNC1)/c1ccccc1 (stereo not drawn)

>  <MEASURED METRIC>
IC50

>  <READOUT UNITS>
nM

>  <RELATION>
>

>  <DATA VALUE>
10000

$$$$
>  <COMPOUND>
CC(C)=CCN1CCCC(/C=C\c2ccccc2)C1 (stereo not drawn)

>  <MEASURED METRIC>
IC50

>  <READOUT UNITS>
nM

>  <RELATION>
=

>  <DATA VALUE>
160

$$$$
>  <COMPOUND>
C(=C/C1CCCN(CCC2CCCCC2)C1)/c1ccccc1 (stereo not drawn)

>  <MEASURED METRIC>
IC50

>  <READOUT UNITS>
nM

>  <RELATION>
=

>  <DATA VALUE>
5440

$$$$
>  <COMPOUND>
C(=C/C1CCCN(CCCc2ccccc2)C1)/c1ccccc1 (stereo not drawn)

>  <MEASURED METRIC>
IC50

>  <READOUT UNITS>
nM

>  <RELATION>
=

>  <DATA VALUE>
150

$$$$
>  <COMPOUND>
C(=C/C1CCCN(CCCCc2ccccc2)C1)/c1ccccc1 (stereo not drawn)

>  <MEASURED METRIC>
IC50

>  <READOUT UNITS>
nM

>  <RELATION>
=

>  <DATA VALUE>
1440

$$$$
>  <COMPOUND>
C(=C\C1CCCN(CCCc2ccccc2)C1)/c1ccccc1 (stereo not drawn)

>  <MEASURED METRIC>
IC50

>  <READOUT UNITS>
nM

>  <RELATION>
=

>  <DATA VALUE>
1240

$$$$
>  <COMPOUND>
C(=C/C1CCCN(CCc2ccccc2)C1)/c1ccccc1 (stereo not drawn)

>  <MEASURED METRIC>
IC50

>  <READOUT UNITS>
nM

>  <RELATION>
=

>  <DATA VALUE>
120

$$$$
>  <COMPOUND>
C(=C/C1CCCNC1)/c1ccccc1 (stereo not drawn)

>  <MEASURED METRIC>
IC50

>  <READOUT UNITS>
nM

>  <RELATION>
=

>  <DATA VALUE>
870

$$$$
>  <COMPOUND>
C(=C\C1CCCN(C2CCCCC2)C1)/c1ccccc1 (stereo not drawn)

>  <MEASURED METRIC>
IC50

>  <READOUT UNITS>
nM

>  <RELATION>
=

>  <DATA VALUE>
5120

$$$$
>  <COMPOUND>
C(=C\C1CCCN(CCc2ccccc2)C1)/c1ccccc1 (stereo not drawn)

>  <MEASURED METRIC>
IC50

>  <READOUT UNITS>
nM

>  <RELATION>
=

>  <DATA VALUE>
2400

$$$$
>  <COMPOUND>
C=CCN1CCCC(/C=C/c2ccccc2)C1 (stereo not drawn)

>  <MEASURED METRIC>
IC50

>  <READOUT UNITS>
nM

>  <RELATION>
>

>  <DATA VALUE>
10000

$$$$

Reference source: ChEMBL document CHEMBL1152021
